Hi there, I'd appreciate the recorded max response for every entry that follows.
system_tested: human CMKLR1 (Homo sapiens, UniProt Q99788)
Construct: host or cells: HEK293A (Invitrogen), stably expressing human Gα15
Sequence (Q99788 1-373): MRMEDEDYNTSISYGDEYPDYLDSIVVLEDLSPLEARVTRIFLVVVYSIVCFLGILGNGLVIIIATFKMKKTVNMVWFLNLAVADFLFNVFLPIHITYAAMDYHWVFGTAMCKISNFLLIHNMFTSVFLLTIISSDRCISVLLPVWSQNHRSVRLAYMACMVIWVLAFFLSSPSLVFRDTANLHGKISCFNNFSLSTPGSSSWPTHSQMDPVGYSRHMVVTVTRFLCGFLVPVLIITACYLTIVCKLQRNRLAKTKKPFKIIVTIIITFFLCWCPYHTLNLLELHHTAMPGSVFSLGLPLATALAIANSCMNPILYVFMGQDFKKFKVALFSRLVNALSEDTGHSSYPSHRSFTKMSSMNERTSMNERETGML
assay: Ca2+ mobilization (CellLux imaging) agonist assay in HEK293A cells expressing CMKLR1 and Gα15
Format: cell-based
run_conditions: Ca2+ mobilization, CMKLR1; decimal comma
Procedure: HEK293A cells (Invitrogen) expressing CMKLR1 and Gα15 were seeded at 5*10^4 cells/well in a poly-D-lysine coated 96-well black well/clear bottom plate (BD Falcon) and cultured overnight. From eighteen to twenty-four hours later, cells were loaded with FLUO4-AM (Invitrogen). […] Fluorescence data was generated in duplicate and experiments were repeated for at least three times. […] Signals were normalized to background fluorescence. […]
Square brackets hold non-standard residues; d marks the D form. Peptide text beside a SMILES is read from it.

Name the reported max response value associated with the compound CC(C)C[C@H](NC(=O)CNC(=O)[C@H](Cc1ccc(O)cc1)NC(=O)[C@H](CC(C)C)NC(=O)[C@H](N)Cc1ccccc1)C(=O)N[C@@H](Cc1ccc(O)cc1)C(=O)N[C@@H](C)C(=O)N[C@@H](Cc1ccccc1)C(=O)N1CCC[C@@H]1C(=O)O [compound 108] (H-[dF]LYGLYAF[dP]-OH; N-terminus assumed)
1,61 DF/F0

Name the reported max response value associated with the compound CC(C)C[C@H](NC(=O)[C@H](Cc1ccccc1)NC(=O)[C@H](Cc1ccc(O)cc1)NC(=O)[C@@H]1CCCN1C(=O)[C@H]1CCCN1C(=O)[C@@H]1CCCN1C(=O)[C@H](CC(C)C)NC(=O)[C@H](N)Cc1ccc(O)cc1)C(=O)N[C@H](Cc1ccccc1)C(=O)O [compound 143] (H-[dY]LP[dP]PYFL[dF]-OH; N-terminus assumed)
1,62 DF/F0

====

system_tested: human CMKLR1 (Homo sapiens)
Construct: host or cells: HEK293A (Invitrogen), stably expressing human Gα15
assay: Ca2+ mobilization (CellLux imaging) agonist assay in HEK293A cells expressing CMKLR1 and Gα15
Assay type: cell-based
run_conditions: Ca2+ mobilization, CMKLR1; decimal comma
Square brackets hold non-standard residues; d marks the D form. Peptide text beside a SMILES is read from it.
Hi there, I'd appreciate the recorded max response for every entry that follows.

Name the reported max response value associated with the compound CC(C)C[C@H](NC(=O)[C@@H](N)Cc1ccc(O)cc1)C(=O)N1CCC[C@H]1C(=O)NCC(=O)N[C@@H](CCC(N)=O)C(=O)N[C@@H](C)C(=O)N[C@H](Cc1ccccc1)C(=O)N[C@@H](Cc1ccccc1)C(=O)N[C@@H](CCCCN)C(=O)O [compound 78] (H-YLPGQA[dF]FK-OH; N-terminus assumed)
1,15 DF/F0

Name the reported max response value associated with the compound CC(C)C[C@H](NC(=O)[C@@H](N)Cc1ccc(O)cc1)C(=O)N1CCC[C@H]1C(=O)NCC(=O)N[C@@H](CCC(N)=O)C(=O)N[C@@H](Cc1ccc(O)cc1)C(=O)N[C@@H](C)C(=O)N[C@H](C)C(=O)N[C@H](Cc1ccccc1)C(=O)O [compound 141] (H-YLPGQYA[dA][dF]-OH; N-terminus assumed)
1,73 DF/F0

Name the reported max response value associated with the compound CC(C)C[C@H](NC(=O)[C@H](N)Cc1ccc(O)cc1)C(=O)N1CCC[C@H]1C(=O)NCC(=O)N[C@@H](CCC(N)=O)C(=O)N[C@@H](Cc1ccc(O)cc1)C(=O)N[C@@H](C)C(=O)N[C@@H](Cc1ccccc1)C(=O)N[C@@H](CO)C(=O)O [compound 82] (H-[dY]LPGQYAFS-OH; N-terminus assumed)
1,61 DF/F0

Name the reported max response value associated with the compound C[C@H](N)C(=O)N[C@@H](Cc1ccccc1)C(=O)NCC(=O)N[C@H](Cc1ccccc1)C(=O)N[C@H](CCC(N)=O)C(=O)N[C@@H](CO)C(=O)N[C@@H](C)C(=O)N[C@@H](Cc1ccc(O)cc1)C(=O)N[C@@H](CO)C(=O)O [compound 134] (H-AFG[dF][dQ]SAYS-OH; N-terminus assumed)
1,37 DF/F0

Name the reported max response value associated with the compound CC(C)C[C@H](N)C(=O)N[C@H](Cc1ccccc1)C(=O)NCC(=O)N1CCC[C@@H]1C(=O)N[C@@H](Cc1ccc(O)cc1)C(=O)NCC(=O)N[C@H](Cc1c[nH]c2ccccc12)C(=O)N[C@H](CO)C(=O)N[C@@H](C)C(=O)O [compound 138] (H-L[dF]G[dP]YG[dW][dS]A-OH; N-terminus assumed)
1,97 DF/F0

Name the reported max response value associated with the compound CC(C)C[C@H](NC(=O)[C@@H](N)Cc1ccc(O)cc1)C(=O)N1CCC[C@H]1C(=O)N[C@H](CO)C(=O)N[C@@H](CCC(N)=O)C(=O)N[C@@H](Cc1ccc(O)cc1)C(=O)N[C@@H](C)C(=O)N[C@@H](Cc1ccccc1)C(=O)N[C@H](Cc1ccccc1)C(=O)O [compound 119] (H-YLP[dS]QYAF[dF]-OH; N-terminus assumed)
1,62 DF/F0
